Data provenance: patent US10259810B2

TESTED ON: ΔF508-CFTR (Homo sapiens, UniProt P13569, DEL508-508)
Construct: host or cells: CFBE41o-, doxycycline-inducible
Sequence (P13569 with tags, fused parts or gaps DEL508-508): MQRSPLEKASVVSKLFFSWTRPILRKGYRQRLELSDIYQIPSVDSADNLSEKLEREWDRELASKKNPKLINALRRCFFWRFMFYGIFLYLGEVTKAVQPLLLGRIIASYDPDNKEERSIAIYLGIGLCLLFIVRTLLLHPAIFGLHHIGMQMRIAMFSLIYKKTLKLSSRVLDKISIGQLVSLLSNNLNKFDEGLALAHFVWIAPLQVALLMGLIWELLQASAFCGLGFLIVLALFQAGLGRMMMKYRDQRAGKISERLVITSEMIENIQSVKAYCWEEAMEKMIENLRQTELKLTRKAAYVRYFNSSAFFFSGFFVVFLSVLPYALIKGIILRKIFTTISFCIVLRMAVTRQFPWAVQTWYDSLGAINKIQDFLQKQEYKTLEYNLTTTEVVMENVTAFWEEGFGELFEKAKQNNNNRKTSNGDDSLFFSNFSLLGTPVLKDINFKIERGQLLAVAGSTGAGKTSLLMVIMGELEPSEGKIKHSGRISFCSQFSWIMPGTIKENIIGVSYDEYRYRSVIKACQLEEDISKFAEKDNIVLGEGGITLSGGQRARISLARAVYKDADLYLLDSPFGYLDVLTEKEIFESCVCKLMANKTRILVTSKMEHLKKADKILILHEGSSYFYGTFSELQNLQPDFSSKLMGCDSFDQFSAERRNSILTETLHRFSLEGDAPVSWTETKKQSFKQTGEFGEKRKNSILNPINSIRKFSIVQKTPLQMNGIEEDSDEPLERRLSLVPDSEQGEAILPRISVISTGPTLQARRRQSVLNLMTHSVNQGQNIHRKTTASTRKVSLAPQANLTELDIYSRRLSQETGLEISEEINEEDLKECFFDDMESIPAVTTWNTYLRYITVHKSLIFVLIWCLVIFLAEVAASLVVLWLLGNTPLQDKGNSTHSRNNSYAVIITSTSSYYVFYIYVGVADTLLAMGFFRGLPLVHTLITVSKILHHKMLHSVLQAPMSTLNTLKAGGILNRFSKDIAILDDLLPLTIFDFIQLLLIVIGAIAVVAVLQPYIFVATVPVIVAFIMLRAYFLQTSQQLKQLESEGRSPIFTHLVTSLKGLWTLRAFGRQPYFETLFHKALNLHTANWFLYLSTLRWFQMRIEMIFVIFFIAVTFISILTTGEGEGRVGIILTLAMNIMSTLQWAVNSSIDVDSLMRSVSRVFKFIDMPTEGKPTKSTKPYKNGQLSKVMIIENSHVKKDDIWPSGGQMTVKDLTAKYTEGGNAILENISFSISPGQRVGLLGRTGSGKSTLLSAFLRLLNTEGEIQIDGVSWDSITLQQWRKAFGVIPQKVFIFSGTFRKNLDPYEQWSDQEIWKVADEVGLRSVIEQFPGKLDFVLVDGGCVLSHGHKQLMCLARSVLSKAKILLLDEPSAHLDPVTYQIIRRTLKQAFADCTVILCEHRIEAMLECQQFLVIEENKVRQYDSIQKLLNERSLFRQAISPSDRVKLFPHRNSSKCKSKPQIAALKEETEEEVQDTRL
ASSAY METHOD TEXT: CFTR cell surface levels using HRP-tagged ΔF508-CFTR expressing CFBE cells, in the presence of a co-corrector
Assay type: cell-based
RECORDED CONDITIONS: HRP-tagged ΔF508-CFTR CFBE cells, in the presence of 3 μM co-corrector
Can you tell me % Activation for the items I'm about to list?

Measured on ΔF508-CFTR (Homo sapiens, UniProt P13569, DEL508-508), `COCCC1CCN(c2cc(C(=O)NS(C)(=O)=O)nc3c2c(C(C)C)nn3-c2cccc(C)c2)CC1` has a documented % Activation of 574.1%

// % Activation (ΔF508-CFTR (Homo sapiens, UniProt P13569, DEL508-508)) for `COCC1CCN(c2cc(C(=O)NS(=O)(=O)CCCO)nc3c2c(C2CCC2)nn3-c2ccccc2)CC1` = 526.17%

Summary line: `C[C@@H]1CN(c2cc(C(=O)NS(=O)(=O)N(C)C)nc3c2c(C2CCC2)nn3C2CCCCC2)CCN1Cc1ccccc1` , ΔF508-CFTR (Homo sapiens, UniProt P13569, DEL508-508), reported % Activation = 245.15%

Value (% Activation, ΔF508-CFTR (Homo sapiens, UniProt P13569, DEL508-508)) for record `COCCN(C)c1cc(C(=O)NS(C)(=O)=O)nc2c1c(C(C)C)nn2-c1ccc(F)cc1` = 376.6%

Record for `Cc1nn(C2CCCCC2)c2nc(C(=O)NS(C)(=O)=O)cc(-c3ccc(N4CCOCC4)nc3)c12` under target or system ΔF508-CFTR (Homo sapiens, UniProt P13569, DEL508-508): % Activation reported as 408.77%

Record `CN(C)S(=O)(=O)NC(=O)c1cc(N2CCC(N3CCOCC3)CC2)c2c(C3CCC3)nn(-c3cccc(F)c3)c2n1` ; system ΔF508-CFTR (Homo sapiens, UniProt P13569, DEL508-508); % Activation = 415.25%

Recorded % Activation for `COCC1CCN(c2cc(C(=O)NS(C)(=O)=O)nc3c2c(C2CCC2)nn3-c2ccnc(C3CCOCC3)c2)CC1` on ΔF508-CFTR (Homo sapiens, UniProt P13569, DEL508-508) was 370.7%

The recorded % Activation with ΔF508-CFTR (Homo sapiens, UniProt P13569, DEL508-508) for CN(C)S(=O)(=O)NC(=O)c1cc(N2CCC(N3CCOC(C#N)C3)CC2)c2c(C3CCC3)nn(-c3ccc(F)cc3)c2n1 (stereo not drawn) was 500%

Entry `CC(C)c1nn(C2CCC(F)(F)CC2)c2nc(C(=O)NS(C)(=O)=O)cc(-c3ccc(N4CCOCC4)cc3)c12` ; assay system ΔF508-CFTR (Homo sapiens, UniProt P13569, DEL508-508); % Activation recorded at 447.7%

Form field % Activation for item `CS(=O)(=O)NC(=O)c1cc(N2CCC(CCN3CCOCC3)CC2)c2c(C3CCC3)nn(-c3ccc(F)cc3)c2n1` on ΔF508-CFTR (Homo sapiens, UniProt P13569, DEL508-508): 568.8%

Considering CN(C)S(=O)(=O)NC(=O)c1cc(N2CCC(N3CCC(F)C3)CC2)c2c(C3CCC3)nn(-c3ccc(F)cc3)c2n1 (stereo not drawn) , its % Activation with ΔF508-CFTR (Homo sapiens, UniProt P13569, DEL508-508) was recorded as 457.2%

The recorded % Activation with ΔF508-CFTR (Homo sapiens, UniProt P13569, DEL508-508) for `COC(C)(C)C1CCN(c2cc(C(=O)NS(C)(=O)=O)nc3c2c(C2CCC2)nn3-c2ccccc2)CC1` was 548.45%

The compound `Cc1cccc(-n2nc(C3CCC3)c3c(N4CCC(N5CCOCC5)CC4)cc(C(=O)NS(C)(=O)=O)nc32)c1` , tested on ΔF508-CFTR (Homo sapiens, UniProt P13569, DEL508-508), showed % Activation of 527.9%

Record for `O=C(NS(=O)(=O)CCO)c1cc(N2CCC(CCN3CCOCC3)CC2)c2c(C3CCC3)nn(-c3ccc(F)cc3)c2n1` under target or system ΔF508-CFTR (Homo sapiens, UniProt P13569, DEL508-508): % Activation reported as 490.9%

Tested system ΔF508-CFTR (Homo sapiens, UniProt P13569, DEL508-508); % Activation recorded for CS(=O)(=O)NC(=O)c1cc(N2CCC(N3CCC(C(F)(F)F)C3)CC2)c2c(C3CCC3)nn(-c3ccc(F)cc3)c2n1 (stereo not drawn) was 587.4%

The compound `O=C(NS(=O)(=O)N1CCC(N2CCOCC2)CC1)c1cc(OCC2CCOCC2)c2c(C3CCC3)nn(-c3ccccc3)c2n1` , when measured on ΔF508-CFTR (Homo sapiens, UniProt P13569, DEL508-508), yielded % Activation of 236.25%

The value of % Activation recorded for `COC[C@H]1CCCN1C1CCN(S(=O)(=O)NC(=O)c2cc(N3CCC(CN4CCCC4)CC3)c3c(C4CCC4)nn(-c4ccccc4)c3n2)CC1` when tested on ΔF508-CFTR (Homo sapiens, UniProt P13569, DEL508-508) reads 282.8%

Entry `CC(C)N1CCN(c2cc(C(=O)NS(C)(=O)=O)nc3c2c(C2CCC2)nn3-c2ccccc2)CC1` ; assay system ΔF508-CFTR (Homo sapiens, UniProt P13569, DEL508-508); % Activation recorded at 327.9%

# % Activation measured on ΔF508-CFTR (Homo sapiens, UniProt P13569, DEL508-508) for item `CC(C)c1nn(-c2ccnc(N3CCOCC3)c2)c2nc(C(=O)NS(C)(=O)=O)cc(-c3ccc(N4CCC(C#N)CC4)nc3)c12` = 378.2%

Bench note, ΔF508-CFTR (Homo sapiens, UniProt P13569, DEL508-508): `CC(C)c1nn(-c2ccc(F)cc2F)c2nc(C(=O)NS(C)(=O)=O)cc(-c3ccc(N4CCC(C#N)CC4)nc3)c12` , % Activation reads 377.9%

Measured % Activation for this entry `COCC1CCN(c2cc(C(=O)NS(=O)(=O)CCCN3CCCC3)nc3c2c(C(C)C)nn3-c2ccc(F)cc2)CC1` on ΔF508-CFTR (Homo sapiens, UniProt P13569, DEL508-508): 420.07%

Per the reported ΔF508-CFTR (Homo sapiens, UniProt P13569, DEL508-508) data, `Cc1nn(-c2ccc(OC(F)(F)F)cc2)c2nc(C(=O)NS(C)(=O)=O)cc(-c3ccc(N4CCOCC4)cc3)c12` has % Activation of 362.03%

Fill in: ΔF508-CFTR (Homo sapiens, UniProt P13569, DEL508-508) % Activation for `CC(=O)N1CCCN(S(=O)(=O)NC(=O)c2cc(OCC3CCOCC3)c3c(C4CCC4)nn(-c4ccccc4)c3n2)CC1` = 229.8%

Bench note, ΔF508-CFTR (Homo sapiens, UniProt P13569, DEL508-508): `O=C(NS(=O)(=O)N1CCOCC1)c1cc(N2CCC(CN3CCCC3)CC2)c2c(C3CCC3)nn(-c3ccccc3)c2n1` , % Activation reads 309.17%

Measured on ΔF508-CFTR (Homo sapiens, UniProt P13569, DEL508-508), `CC(C)Oc1nn(C2CCCCC2)c2nc(C(=O)NS(=O)(=O)N(C)C)cc(-c3ccc(CN4CCOCC4)cc3)c12` has a documented % Activation of 311.35%

// compound `COc1ccc(-c2cc(C(=O)NS(C)(=O)=O)nc3c2c(C)nn3-c2ccc(C)c(Cl)c2)cc1` , assay ΔF508-CFTR (Homo sapiens, UniProt P13569, DEL508-508), % Activation value: 217.8%

% Activation on ΔF508-CFTR (Homo sapiens, UniProt P13569, DEL508-508) for `COCCS(=O)(=O)NC(=O)c1cc(N2CCC(CN3CCOCC3)CC2)c2c(C3CCC3)nn(-c3ccc(F)cc3)c2n1` is 543.1%
